Entry source: patent US20220017636A1

# TGT: T1, CNDP2 peptide complexed with HLA-A*02:01 on T2 cells (human)
# T1 construct: whole, on cells; also called CNPD2
# METHOD NOTES: flow cytometry, peptide-loaded T2 cells;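 further: binding of single-chain Fv antibody constructs, raised in XenoMouse, to peptide-pulsed T2 cells measured by flow cytometry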
READOUT KIND: Signal/background
Write the number on its own, no unit after it.

**Query** For the binder shown here, 18179-C1 (scFv, scFv in bacterial lysate, detected with anti-Flag M2) scFv: EVQLLESGAEVKKPGASVKVSCKASGYTFTRNGLSWVRQAPGQGLEWMGWISGYNGDTNYAQKLQGRGTMTTDTSTSTAYMELRSLRSDDTAVYYCARGRATFDYWGQGTLVTVSSGGGGSGGGGSGGGGSELVMTQSPSSLSASVGDRVTITCRASQGISNYLAWYQQKPGKVPKLLISAASTLQSGVPSRFSGSGSGTDFTLTISSLQPEDVATYYCQKYNSAPFTFGPGTKVDIK , give the reported Signal/background.
**Result** 0.8

**Query** Suppose we examine the binder 18179-D7 (scFv, scFv in bacterial lysate, detected with anti-Flag M2) scFv: EVQLLESGGGLVQPGGSLRLSCAASGFTFSNAWMSWVRQAPGKGLEWVGRIKGNTYGGTTDYAAPVKGRFTISRDDSKNTLFLQMNSLKTEDTAVYYCTTPSYSGSYYNYFSVMDVWGQGTTVTVSSGGGGSGGGGSGGGGSELVMTQSPSSLSASVGDRVTITCRTSQSISSYLNWYQQKPGRAPKLLIFAASSLQGGVPSRFSGSGSGTDFTLTISSLQPEDFATYYCQQTYSMPFTFGPGTKVDIK ; what Signal/background value has been reported?
**Result** 1.1

**Query** Param item = 18179-A7 (scFv, scFv in bacterial lysate, detected with anti-Flag M2) scFv: EVQLLESGGGLVKPGGSLRLSCAASGFTFSNAWMSWVRQAPGKGLEWVGRIKGNTYGGTTDYAAPVKGRFTISRDDSKNTLFLQMNSLKTEDTAVYYCTTPSYSGSYYNYFSVMDVWGQGTTVTVSSGGGGSGGGGSGGGGSELVMTQSPSSLSASVGDRVTITCRTSQSISSYLNWYQQKPGRAPKLLIFAASSLQGGVPSRFSGSGSGTDFTLTISSLQPEDFATYYCQQTYSMPFTFGPGTKVDIK ; retrieve measured Signal/background.
**Result** 1

**Query** Report Signal/background for 18182-G8 (scFv, scFv in bacterial lysate, detected with anti-Flag M2) scFv: EVQLLESGGGLVKPGGSLRLSCAASGFTFSSYAMNWVRQAPGKGLEWVSAISGSGGGTYYADSGKGRFTISRDNSKNTLYLQMNSLRAEDTAVYYCATGKGVHLNFDYWGQGTLVTVSSGGGGSGGGGSGGGGSELVLTQPPSVSVAPGQTARITCGGNNIGSKSVHWYQQKPGQAPVMVVYDDNDRPSGIPERFSGSNSGNTATLTISRVEAGDEADYYCQVWDSSSDHVVFGGGTKLTVL please.
**Result** 0.9

**Query** I'd like to know its Signal/background. The binder in question is 18093-B11 (scFv, scFv in bacterial lysate, detected with anti-Flag M2) scFv: EVQLLESGGGLVKPGGSLRLSCAASGFTFSDYYMSWIRQAPGKGLEWVSYISKSGSTIYYADSVKGRFTISRDNAKNSLYLQMNSLRAEDTAVYYCATYNYGHFDYWGQGTLVTVSSGGGGSGGGGSGGGGSELVLTQPPSVSVAPGQTARITCGGNNIGSKSVHWYQQKPGQAPVLVVYDDSDRPSGIPERFSGSNSGNTATLTISRVEAGDEADYYCQVWDSSSDHHVVFGGGTKLTVL
**Result** 1
